Condition Summary: in ethyl acetate, 283.15 K
Assay Endpoint: solubility (mole fraction)
Keep the answer to the number alone.

Which solubility (mole fraction) value belongs to CC[C@H]1OC(=O)[C@H](C)[C@@H](O[C@H]2C[C@@](C)(OC)[C@@H](O)[C@H](C)O2)[C@H](C)[C@@H](O[C@@H]2O[C@H](C)C[C@H](N(C)C)[C@H]2O)[C@](C)(O)C[C@@H](C)CN(C)[C@H](C)[C@@H](O)[C@]1(C)O.O ?
0.0341

* * *

Condition Summary: in ethanol, 283.15 K
Assay Endpoint: solubility (mole fraction)
Number, no unit, nothing else.

Give the measured solubility (mole fraction) of CC[C@H]1OC(=O)[C@H](C)[C@@H](O[C@H]2C[C@@](C)(OC)[C@@H](O)[C@H](C)O2)[C@H](C)[C@@H](O[C@@H]2O[C@H](C)C[C@H](N(C)C)[C@H]2O)[C@](C)(O)C[C@@H](C)CN(C)[C@H](C)[C@@H](O)[C@]1(C)O.O .
0.0325

* * *

Condition Summary: in ethyl acetate, 278.15 K
Assay Endpoint: solubility (mole fraction)
Form field (numeric): enter value without unit.

So what's the measured solubility (mole fraction) for this one? CC[C@H]1OC(=O)[C@H](C)[C@@H](O[C@H]2C[C@@](C)(OC)[C@@H](O)[C@H](C)O2)[C@H](C)[C@@H](O[C@@H]2O[C@H](C)C[C@H](N(C)C)[C@H]2O)[C@](C)(O)C[C@@H](C)CN(C)[C@H](C)[C@@H](O)[C@]1(C)O.O
0.0324

* * *

Condition Summary: in ethyl acetate, 323.15 K
Assay Endpoint: solubility (mole fraction)

Request the reported solubility (mole fraction) associated with CC[C@H]1OC(=O)[C@H](C)[C@@H](O[C@H]2C[C@@](C)(OC)[C@@H](O)[C@H](C)O2)[C@H](C)[C@@H](O[C@@H]2O[C@H](C)C[C@H](N(C)C)[C@H]2O)[C@](C)(O)C[C@@H](C)CN(C)[C@H](C)[C@@H](O)[C@]1(C)O.O
0.081

* * *

Condition Summary: in acetone, 303.15 K
Assay Endpoint: solubility (mole fraction)
Output spec: single numeric token, no unit.

Endpoint output: solubility (mole fraction) of CC[C@H]1OC(=O)[C@H](C)[C@@H](O[C@H]2C[C@@](C)(OC)[C@@H](O)[C@H](C)O2)[C@H](C)[C@@H](O[C@@H]2O[C@H](C)C[C@H](N(C)C)[C@H]2O)[C@](C)(O)C[C@@H](C)CN(C)[C@H](C)[C@@H](O)[C@]1(C)O.O . Value?
0.0464

* * *

Condition Summary: in isopropanol, 323.15 K
Assay Endpoint: solubility (mole fraction)
Give the figure only, with no unit attached.

Give its solubility (mole fraction) value. Item: CC[C@H]1OC(=O)[C@H](C)[C@@H](O[C@H]2C[C@@](C)(OC)[C@@H](O)[C@H](C)O2)[C@H](C)[C@@H](O[C@@H]2O[C@H](C)C[C@H](N(C)C)[C@H]2O)[C@](C)(O)C[C@@H](C)CN(C)[C@H](C)[C@@H](O)[C@]1(C)O.O
0.0575

* * *

Condition Summary: in isopropanol, 303.15 K
Assay Endpoint: solubility (mole fraction)
Number only, please.

Query: solubility (mole fraction); subject: CC[C@H]1OC(=O)[C@H](C)[C@@H](O[C@H]2C[C@@](C)(OC)[C@@H](O)[C@H](C)O2)[C@H](C)[C@@H](O[C@@H]2O[C@H](C)C[C@H](N(C)C)[C@H]2O)[C@](C)(O)C[C@@H](C)CN(C)[C@H](C)[C@@H](O)[C@]1(C)O.O
0.0433
